tested on: SF-539 CNS; assay: NCI tumour cell line growth inhibition, 48 h
OBSERVABLE: TGI (µM)
Your answer is read as µM, so omit the unit and give the number.

The recorded TGI for COC(=O)c1cc2c(n1S(=O)(=O)c1ccc(C)cc1)C(=O)C(=O)c1[nH]cc(C(=O)OCc3ccccc3)c1-2 is 0.311

Recorded TGI (compound Cc1nc2ccccc2c(N)c1-c1cc(C)c2c(C)nc3ccccc3c2n1 ): 2.59

* * *

Reported TGI by item:
system: UO-31 renal; assay: NCI tumour cell line growth inhibition, 48 h

Study these solved cases before continuing.
CCOC(=O)N1CCC2(CC1)C[C@](C)(C(C)=O)C(C)O2 (some centres undefined); > 100 µM
CN1CCN([C@H]2C[C@H]3[C@@H]4CC=C5C[C@@H](O)CC[C@]5(C)[C@H]4CC[C@]3(C)C2=O)CC1; > 100 µM
Cn1cc(C2=C(c3cn(C)c4ncccc34)C(=O)NC2=O)c2ccccc21; > 19.8 µM

# TGI (compound: CCNC(=S)N/N=C/c1cc([N+](=O)[O-])ccc1O ) is > 100 µM

* * *

Measured TGI accompanies every entry in the list below.
test system: K-562 leukemia; assay: NCI tumour cell line growth inhibition, 48 h

O=CC[C@H]1C(=O)C[C@@H]2CCC[C@@H]21; > 100 µM
CCCCOC(=O)C1OC(O[C@H]2CCC3(C)C(CCC4(C)C3CC=C3C5CC(C)(C)CCC5(C(=O)O)CC[C@]34C)C2(C)C)C(OC2OC(CO)C(O)C(O)C2O)C(OC2OC(CO)C(O)C(O)C2O)C1O (stereo partly drawn); > 100 µM

Summary for this compound, Cc1ccc(NC2=C(Cl)C(=O)N(Cc3ccccc3)C2=O)cc1O : TGI is > 100 µM

* * *

tested on: HOP-62 NSCLC; assay: NCI tumour cell line growth inhibition, 48 h
Measured TGI values are reported for all entries that follow.

Solved cases below.
O=C1CCC23CC(C=CC=C12)n1c(=O)n(-c2ccccc2)c(=O)n13 (stereo not given); > 100 µM
CN1CCN([C@H]2C[C@H]3[C@@H]4CC=C5C[C@@H](O)CC[C@]5(C)[C@H]4CC[C@]3(C)C2=O)CC1; > 100 µM
N#CN=C(N(Cc1ccccc1)Cc1ccccc1)N(Cc1ccccc1)Cc1ccccc1; > 100 µM
OCc1ccc(N2CCC2c2ccc(F)cc2)cc1Cl (stereo not given); > 68 µM

Value of TGI reported for the compound O=C(CCC(=O)c1ccc(Cl)cc1)NO is > 100 µM

* * *

system: COLO 205 colon; assay: NCI tumour cell line growth inhibition, 48 h
Below, each of the compounds is paired with its reported TGI value.

Please review the entries below; each comes with its answer.
COc1ccccc1C12OC(=O)C1(C)Oc1ccccc1C2=O (stereo not given); > 100 µM
COc1ccc2c(=O)c(O)c(-c3ccc(OC)c(OC)c3)oc2c1; > 100 µM
CC(=O)NC1=C(NCCC(C)C)C(=O)c2ccccc2C1=O; > 50 µM

# TGI (compound: COC(=O)[C@H](Cc1c[nH]c2ccccc12)NP(=O)(O)OCC1C=CC(n2cc(C)c(=O)[nH]c2=O)O1 (stereo not given in full) ) is > 100 µM

So, Oc1cc2c3c(c1)c1cc4c(cc1c[n+]3CC2)OCO4 ? Its TGI was > 40.6 µM

Value of measured TGI for the entry CC(C)CC(=O)OC[n+]1ccc(-c2c(COC(=O)NC(C)C)c(COC(=O)NC(C)C)c3n2CCC3)cc1 : > 100 µM

Reported TGI of CC(C)CCCCCCCCCCCCC(=O)NCC(=O)NC1C(C)OC(Nc2ncnc3c2ncn3C)C(O)C1O (stereo not given) : > 100 µM

Reported TGI for CC1C=C(CCCCCCCCCCCC[C@@H](O)[C@@H]2CC[C@@H]([C@@H]3CC[C@@H](C(O)CCCCCCCCCCCCC4=C[C@H](C)OC4=O)O3)O2)C(=O)O1 (stereo not given in full) was > 100 µM

Query COc1cc2c(cc1OC)-c1c3cc(O)ccc3nn[n+]1CC2 yields TGI of > 100 µM

Reported TGI for CC1(c2ccc(F)cc2)C(C#N)C(=O)NC(=O)C1C#N (stereo not given) was > 100 µM

* * *

test system: HCT-116 colon; assay: NCI tumour cell line growth inhibition, 48 h
OBSERVABLE: TGI

Worked examples, 8 compounds total:
CCC[C@@H](O)C[C@@H]1CCC[C@H](C[C@@H](O)CC)N1C; > 100 µM
CC[C@@]1(O)C(=O)OCc2c1cc1n(c2=O)Cc2c-1nc1ccccc1c2/C=N\NC(=O)CN; 16.1 µM
O=C(O)CN(CC(=O)O)C1CCCCC1N(CC(=O)O)CC(=O)NCCN=C=S (stereo not given); > 100 µM
CCCCOC(=O)C1OC(O[C@H]2CCC3(C)C(CCC4(C)C3CC=C3C5CC(C)(C)CCC5(C(=O)O)CC[C@]34C)C2(C)C)C(OC2OC(CO)C(O)C(O)C2O)C(OC2OC(CO)C(O)C(O)C2O)C1O (stereo not given in full); 42.7 µM
N.N.N.N.O=[N+]([O-])[O-].[Co+3].[N-]=[N+]=[N-].[N-]=[N+]=[N-]; > 100 µM
CC(=O)O[C@H]1C(=O)[C@]2(C)[C@@H](OC(=O)OCCC(O)CO)C[C@H]3OC[C@@]3(OC(C)=O)[C@H]2[C@H](OC(=O)c2ccccc2)[C@]2(O)C[C@H](OC(=O)[C@H](O)[C@@H](NC(=O)c3ccccc3)c3ccccc3)C(C)=C1C2(C)C (stereo not given in full); 5.65 µM
N#CCCN(CCC#N)c1ccc(/C=C2\N=C(c3cc([N+](=O)[O-])ccc3Cl)OC2=O)cc1; > 100 µM
O=C(O)CSc1ccc([N+](=O)[O-])cc1[N+](=O)[O-]; > 100 µM

CC1(C)CCc2c(c3c(c4c(=O)c(O)c(-c5ccc(O)cc5)oc24)OC(C)(C)CC3)O1 has a reported TGI of > 100 µM

Item: Cc1cccc2c(=O)cc(-c3ccccc3)[nH]c12 | TGI: > 100 µM

Per the record, CCOC(=O)c1c2ccccc2n2c(N)c(C(N)=O)nnc12 has TGI of > 100 µM

Documented TGI of Nc1cccc2cc(Cl)cnc12 : > 100 µM

* * *

system: HL-60(TB) leukemia; test: NCI tumour cell line growth inhibition, 48 h
OBSERVABLE: TGI

Would you please look over these solved cases?
CC(=O)NC1=C(NCCC(C)C)C(=O)c2ccccc2C1=O; > 50 µM
CO[C@H](C(=O)[C@@H](O)[C@@H](C)O)[C@@H]1Cc2cc3cc(O[C@H]4C[C@@H](O[C@H]5C[C@@H](O)[C@H](O)C(C)O5)[C@H](O)C(C)O4)c(C)c(O)c3c(O)c2C(=O)[C@H]1O[C@H]1C[C@@H](O[C@H]2C[C@@H](O[C@H]3C[C@](C)(O)C(=O)C(C)O3)[C@@H](O)C(C)O2)[C@H](O)C(C)O1 (stereo partly drawn); > 21 µM

Okay, next one:
The compound listed as CC1C=C(CCCCCCCCCCCC[C@@H](O)[C@@H]2CC[C@@H]([C@@H]3CC[C@@H](C(O)CCCCCCCCCCCCC4=C[C@H](C)OC4=O)O3)O2)C(=O)O1 (stereo partly drawn) has a reported TGI of > 100 µM

* * *

Entries and their TGI values follow.
system: CCRF-CEM leukemia; experiment: NCI tumour cell line growth inhibition, 48 h

Reference set (5 entries):
O=C1C(Cl)=C(Nc2cccc(Cl)c2)C(=O)N1Cc1ccc(Cl)cc1Cl; > 100 µM
COc1cc([C@@H]2c3cc4c(cc3[C@@H](Nc3ccc([N+](=O)[O-])cc3C(=O)c3ccccc3)[C@H]3COC(=O)[C@H]23)OCO4)cc(OC)c1OC; > 100 µM
Cc1cccc(/C=N/NC(=S)Nc2ccccc2)n1; > 23.3 µM
CSc1nc2c(c(=O)[nH]1)N=C1c3ccccc3C(=O)C1C(c1ccccc1)N2 (stereo not drawn); > 100 µM
CC(C)C1/C(=N/O)CC(c2ccccc2)N(N=O)C1c1ccccc1 (stereo not drawn); > 100 µM

TGI for Cc1cc(=O)[nH]c(NN2C(Cl)C(=O)C2c2ccccc2O)n1 (stereo not drawn) is > 100 µM

For this molecule ( Cn1cc(C2=C(c3cn(C)c4ncccc34)C(=O)NC2=O)c2ccccc21 ), measured TGI is > 22.9 µM

GET /value?item= NNC(=O)Nc1cccnc1 &field=TGI returns > 100 µM

Item: Cc1cc(C)nc(NS(=O)(=O)c2ccc(NC(=O)c3ccc(Cl)c4c(Nc5ccc(S(=O)(=O)Nc6nc(C)cc(C)n6)cc5)c5ccccc5nc34)cc2)n1 | TGI: > 100 µM

Briefly, TGI measured for CN/N=C(/Cc1occc(=O)c1O)C(=O)Nc1ccccc1C : > 100 µM

Lab note: measured TGI of Cc1ccc(C(=O)/C(=C/c2ccc([N+](=O)[O-])cc2)SCc2ccc(Cl)cc2)cc1 was > 100 µM

TGI reported for this molecule Cc1nc(C(N)=S)sc1/C(CC(=O)C(=O)Nc1cccc2ccc(O)cc12)=N\NC(=O)c1ccncc1 : > 100 µM

# TGI of C=C1c2nc3ccccc3n2C=C(c2ccccc2)N1c1ccc([N+](=O)[O-])cc1 = > 81.3 µM

These measurements were taken from PubChem BioAssay (NCI).
